# TEST SYSTEM: AGTR1 (Homo sapiens, UniProt P30556)
# Construct: host or cells: Pathunter CHO-K1 AGTR1 β-arrestin cell line (CHO-K1)
# Sequence (P30556 1-359): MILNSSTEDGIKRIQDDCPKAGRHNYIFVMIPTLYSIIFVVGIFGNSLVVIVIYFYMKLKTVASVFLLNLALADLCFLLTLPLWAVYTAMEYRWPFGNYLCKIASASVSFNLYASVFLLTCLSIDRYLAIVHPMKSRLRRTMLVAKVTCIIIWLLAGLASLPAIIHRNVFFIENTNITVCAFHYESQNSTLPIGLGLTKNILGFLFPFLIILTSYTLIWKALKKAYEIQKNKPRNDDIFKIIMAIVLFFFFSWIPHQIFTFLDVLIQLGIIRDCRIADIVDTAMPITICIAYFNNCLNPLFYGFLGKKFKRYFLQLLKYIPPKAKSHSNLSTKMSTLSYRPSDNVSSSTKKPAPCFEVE
# EXPERIMENTAL DETAILS: DiscoveRx β-arrestin2 recruitment assay (enzyme complementation, Pathunter CHO-K1 AGTR1 β-arrestin cell line)
# Assay type: cell-based
# TEST PARAMETERS: DiscoveRx β-arrestin2 recruitment
pEC50: −log10 of the molar value.
PARAMETER: pEC50

{"STRUCTURE SMILES STRING": "CCCCC1=NC2(CCOCC2)C(=O)N1Cc1ccc(-c2cc(-c3ccccc3)ccc2-c2nnn[nH]2)cc1", "REPORTED VALUE": 7.07}
{"STRUCTURE SMILES STRING": "CCc1nc2c(C)cc(C)nc2n1Cc1ccc(-c2cc(-c3ccc(C)cc3)ccc2-c2nn[nH]n2)cc1", "REPORTED VALUE": 6.85}
{"STRUCTURE SMILES STRING": "CCc1nc2c(C)cc(C)nc2n1Cc1ccc(-c2cc(-n3cc(C)nn3)ccc2-c2nnn[nH]2)cc1", "REPORTED VALUE": 7.77}
{"STRUCTURE SMILES STRING": "CCc1nc2c(C)cc(C)nc2n1Cc1ncc(-c2cc(-c3cccc(C)c3)ccc2-c2nnn[nH]2)cn1", "REPORTED VALUE": 7.38}
{"STRUCTURE SMILES STRING": "CCCCC1=NC2(CCCC2)C(=O)N1Cc1ccc(-c2cc(Oc3ccccc3)ccc2-c2nnn[nH]2)cc1", "REPORTED VALUE": 7.64}
{"STRUCTURE SMILES STRING": "CCCCC1=NC2(CCCC2)C(=O)N1Cc1ccc(-c2cc(-c3cncc(C)c3)ccc2-c2nn[nH]n2)cc1", "REPORTED VALUE": 7.47}
{"STRUCTURE SMILES STRING": "CCCCC(=O)N(Cc1ccc(-c2cc(-c3ccccc3)ccc2-c2nn[nH]n2)cc1)C1(C(=O)O)CCN(c2ccccc2)CC1", "REPORTED VALUE": 6.56}
{"STRUCTURE SMILES STRING": "CCc1nc2c(C)cc(C)nc2n1Cc1ccc(-c2cc(-c3cccc(C)c3)ccc2-c2nnn[nH]2)nc1", "REPORTED VALUE": 8.22}

---

# TEST SYSTEM: hAT1R (Homo sapiens)
# Sequence (P30556 1-359): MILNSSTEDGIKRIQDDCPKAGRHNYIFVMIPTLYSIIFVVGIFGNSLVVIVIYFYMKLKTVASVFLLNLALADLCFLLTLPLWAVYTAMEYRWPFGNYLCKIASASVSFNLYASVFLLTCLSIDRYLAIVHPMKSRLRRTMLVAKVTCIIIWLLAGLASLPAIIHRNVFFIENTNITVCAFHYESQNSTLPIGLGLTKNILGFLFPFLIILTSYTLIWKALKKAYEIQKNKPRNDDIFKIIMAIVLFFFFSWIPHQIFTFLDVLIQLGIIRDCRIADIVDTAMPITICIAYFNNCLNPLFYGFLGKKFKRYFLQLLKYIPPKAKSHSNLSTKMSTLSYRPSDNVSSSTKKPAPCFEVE
# EXPERIMENTAL DETAILS: BRET Gq biosensor assay, agonist response, HEK293 cells
# Assay type: cell-based
# TEST PARAMETERS: section of the 42nd table directly before the BRET P63 section
PARAMETER: EC50 (nM)

{"COMPOUND": "CCCc1nc(C(C)(C)O)c(C(=O)O)n1Cc1ccc(-c2cc(-c3ccccc3)ccc2-c2nn[nH]n2)cc1 [Example 402]", "REPORTED VALUE": 64.9}
{"COMPOUND": "CCCCc1ncc(C(=O)NCC(F)F)n1Cc1ccc(-c2cc(-c3ccccc3)ccc2-c2nn[nH]n2)cc1 [Example 364]", "REPORTED VALUE": 119}
{"COMPOUND": "CCCCc1ncc(C(=O)NC2CCC2)n1Cc1ccc(-c2cc(-c3ccccc3)ccc2-c2nn[nH]n2)cc1 [Example 380]", "REPORTED VALUE": 104}

---

# TEST SYSTEM: AGTR1 (Homo sapiens)
# Construct: host or cells: Pathunter CHO-K1 AGTR1 β-arrestin cell line (CHO-K1)
# EXPERIMENTAL DETAILS: DiscoveRx β-arrestin2 recruitment assay (enzyme complementation, Pathunter CHO-K1 AGTR1 β-arrestin cell line)
# Assay type: cell-based
# TEST PARAMETERS: DiscoveRx β-arrestin2 recruitment, maximal response

{"COMPOUND": "CCCCc1ncc(C(=O)NCc2cc(C(C)C)no2)n1Cc1ccc(-c2cc(-c3ccccc3)ccc2-c2nn[nH]n2)cc1", "DiscoveRx β-arrestin2 Ymax (%)": "46.2%"}
{"COMPOUND": "CCc1nc2c(C)cc(C)nc2n1Cc1ccc(-c2cc(N3CCC[C@H](C)C3)ccc2-c2nn[nH]n2)cc1", "DiscoveRx β-arrestin2 Ymax (%)": "22.1%"}
{"COMPOUND": "CCCCC1=NC2(CCCC2)C(=O)N1Cc1ccc(-c2cc(-c3ccccc3)ccc2-c2nn[nH]n2)cc1", "DiscoveRx β-arrestin2 Ymax (%)": "29.9%"}
{"COMPOUND": "CCCCc1ncc(C(=O)NC2CCCC2)n1Cc1ccc(-c2cc(-c3ccccc3)ccc2-c2nn[nH]n2)cc1", "DiscoveRx β-arrestin2 Ymax (%)": "39.0%"}
{"COMPOUND": "CCc1nc2c(C)cc(C)nc2n1Cc1ccc(-c2cc(Oc3cccnc3)ccc2-c2noc(=O)[nH]2)cc1", "DiscoveRx β-arrestin2 Ymax (%)": "80.6%"}
{"COMPOUND": "CCc1nc2c(C)cc(C)nc2n1Cc1ccc(-c2cc(C3CCCCN3)ccc2-c2nn[nH]n2)cc1 (single isomer, unassigned) [Example 76]", "DiscoveRx β-arrestin2 Ymax (%)": "13.2%"}
{"COMPOUND": "CCCCc1ncc(C(=O)NCc2ccccn2)n1Cc1ccc(-c2cc(-c3ccccc3)ccc2-c2nn[nH]n2)cc1", "DiscoveRx β-arrestin2 Ymax (%)": "40.8%"}
{"COMPOUND": "CCc1nc2c(C)cc(C)nc2n1Cc1ccc(-c2cc(C3CCCCC3)ccc2-c2nn[nH]n2)cc1", "DiscoveRx β-arrestin2 Ymax (%)": "46.8%"}
{"COMPOUND": "CCCc1nc(CC)c(C(=O)O)n1Cc1ccc(-c2cc(-c3ccccc3)ccc2C(=O)O)cc1", "DiscoveRx β-arrestin2 Ymax (%)": "40.4%"}
{"COMPOUND": "Cc1ccnc(-c2ccc(-c3nn[nH]n3)c(-c3ccc(CN4C(=O)C5(CCCC5)N=C4C(C)C)cc3)c2)c1", "DiscoveRx β-arrestin2 Ymax (%)": "50.0%"}
{"COMPOUND": "CCCC1=NC2(CCOC2)C(=O)N1Cc1ccc(-c2cc(-c3ccccc3)ccc2-c2nnn[nH]2)cc1 (single isomer, unassigned)", "DiscoveRx β-arrestin2 Ymax (%)": "31.9%"}
{"COMPOUND": "CCCCc1nc(Cl)c(C(=O)O)n1Cc1ccc(-c2cc(-c3cnn(C)c3)ccc2-c2nn[nH]n2)cc1", "DiscoveRx β-arrestin2 Ymax (%)": "26.7%"}
{"COMPOUND": "CCCCc1ncc(C(=O)NCc2nccs2)n1Cc1ccc(-c2cc(-c3ccccc3)ccc2-c2nn[nH]n2)cc1", "DiscoveRx β-arrestin2 Ymax (%)": "41.5%"}
{"COMPOUND": "CCCC1=NC2(CCCC2)C(=O)N1Cc1ccc(-c2cc(N3CCC[C@@H](C)C3)ccc2-c2nn[nH]n2)cc1", "DiscoveRx β-arrestin2 Ymax (%)": "30.6%"}
{"COMPOUND": "CCc1nc2c(C)cc(C)nc2n1Cc1ccc(-c2cc(N(C)c3ccccc3)ccc2-c2nn[nH]n2)cc1", "DiscoveRx β-arrestin2 Ymax (%)": "35.9%"}
{"COMPOUND": "CCc1nc2c(C)cc(C)nc2n1Cc1ccc(-c2cc(-c3cccc(C)c3)ccc2-c2nn[nH]n2)cc1", "DiscoveRx β-arrestin2 Ymax (%)": "42.2%"}
{"COMPOUND": "CCc1nc2c(C)cc(C)nc2n1Cc1ccc(-c2cc(-c3cc(C)cc(C)c3)ccc2-c2nn[nH]n2)cc1", "DiscoveRx β-arrestin2 Ymax (%)": "66.7%"}
{"COMPOUND": "CCc1nc2c(C)cc(C)nc2n1Cc1ccc(-c2cc(-c3cc(C)ccn3)ccc2C(=O)O)cc1", "DiscoveRx β-arrestin2 Ymax (%)": "60.7%"}
{"COMPOUND": "CCOc1nc2cccc(C(=O)O)c2n1Cc1ccc(-c2cc(-c3ccccn3)ccc2-c2noc(=O)[nH]2)cc1", "DiscoveRx β-arrestin2 Ymax (%)": "58.9%"}
{"COMPOUND": "CCCCc1ncc(C(=O)NCc2cnccn2)n1Cc1ccc(-c2cc(-c3ccccc3)ccc2-c2nn[nH]n2)cc1", "DiscoveRx β-arrestin2 Ymax (%)": "43.5%"}

Measured values drawn from patent US12037324B2 for this set.
